viability, T/C overview
Tested on: 521955-158-R2-J5-PDC complex spheroid viability
Assay: Anticancer human tumor 521955-158-R2-J5-PDC patient-derived pancreatic carcinoma cell line growth inhibition
Conditions: second compound 10 µM; first compound 0.001 µM; active compounds read low
Numbers only here, please. The scale is %.

Here are 5 compounds together with their reported answers.
CC[C@@]1(O)C(=O)OCc2c1cc1n(c2=O)Cc2cc3c(CN(C)C)c(O)ccc3nc2-1 + NC1CC1c1ccc(-c2cccc(O)c2)cc1 : 92.3
CC(C)CC(NC(=O)CNC(=O)c1cc(Cl)ccc1Cl)B1OC(=O)CC(CC(=O)O)(C(=O)O)O1 (stereo not drawn) + NC1CC1c1ccc(-c2cccc(O)c2)cc1 : 93.7
Cn1ncnc1C1c2n[nH]c(=O)c3cc(F)cc(c23)NC1c1ccc(F)cc1 (stereo not drawn) + NC1CCC(NC2CC2c2ccccc2)CC1 : 97.2
CC(C)CC(NC(=O)C(Cc1ccccc1)NC(=O)c1cnccn1)B(O)O (stereo not drawn) + NC1CC1c1ccc(-c2cccc(O)c2)cc1 : 0.4
CC(C)CC(NC(=O)CNC(=O)c1cc(Cl)ccc1Cl)B1OC(=O)CC(CC(=O)O)(C(=O)O)O1 (stereo not drawn) + NC1CCC(NC2CC2c2ccccc2)CC1 : 96.4

Which viability, T/C reading was recorded for the compound CC(C)CC(NC(=O)C(Cc1ccccc1)NC(=O)c1cnccn1)B(O)O (stereo not drawn) + NC1CCC(NC2CC2c2ccccc2)CC1 ?
4.43

Which viability, T/C reading was recorded for the compound CC[C@@]1(O)C(=O)OCc2c1cc1n(c2=O)Cc2cc3c(CN(C)C)c(O)ccc3nc2-1 + NC1CCC(NC2CC2c2ccccc2)CC1 ?
105

Which viability, T/C reading was recorded for the compound Cn1ncnc1C1c2n[nH]c(=O)c3cc(F)cc(c23)NC1c1ccc(F)cc1 (stereo not drawn) + NC1CC1c1ccc(-c2cccc(O)c2)cc1 ?
96.1

----------
System: 521955-158-R2-J5-PDC complex spheroid viability
Assay: Anticancer human tumor 521955-158-R2-J5-PDC cell line growth inhibition;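 note: spheroids exposed to agents for seven days; percent of DMSO vehicle control luminescence viability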
Details: second compound 3.16 µM; first compound 0.3 µM; active compounds read low
metric: viability, T/C (%)
Numbers only here, please. The scale is %.

Nc1ccn(C2OC(CO)C(O)C2(F)F)c(=O)n1 (stereo not drawn) + NC1CC1c1ccc(-c2cccc(O)c2)cc1 : 27.5
Nc1ccccc1NC(=O)c1ccc(CNC(=O)OCc2cccnc2)cc1 + NC1CCC(NC2CC2c2ccccc2)CC1 : 52.7
NS(=O)(=O)OCC1CC(n2ccc3c(NC4CCc5ccccc54)ncnc32)CC1O (stereo not drawn) + NC1CCC(NC2CC2c2ccccc2)CC1 : 15.6
Nc1ccccc1NC(=O)c1ccc(CNC(=O)OCc2cccnc2)cc1 + NC1CC1c1ccc(-c2cccc(O)c2)cc1 : 70
CCc1c2c(nc3ccc(O)cc13)-c1cc3c(c(=O)n1C2)COC(=O)[C@]3(O)CC + NC1CCC(NC2CC2c2ccccc2)CC1 : 1.4

Which viability, T/C reading was recorded for the molecule O=C(C=Cc1cccc(S(=O)(=O)Nc2ccccc2)c1)NO + NC1CCC(NC2CC2c2ccccc2)CC1 ?
50.1

Which viability, T/C reading was recorded for the molecule O=C(C=Cc1cccc(S(=O)(=O)Nc2ccccc2)c1)NO + NC1CC1c1ccc(-c2cccc(O)c2)cc1 ?
55.5

Which viability, T/C reading was recorded for the molecule Nc1ccn(C2OC(CO)C(O)C2(F)F)c(=O)n1 (stereo not drawn) + NC1CCC(NC2CC2c2ccccc2)CC1 ?
12.8

Data provenance is PubChem BioAssay AID1918937.
